B1: library; numbered along this chain (parent)
chain: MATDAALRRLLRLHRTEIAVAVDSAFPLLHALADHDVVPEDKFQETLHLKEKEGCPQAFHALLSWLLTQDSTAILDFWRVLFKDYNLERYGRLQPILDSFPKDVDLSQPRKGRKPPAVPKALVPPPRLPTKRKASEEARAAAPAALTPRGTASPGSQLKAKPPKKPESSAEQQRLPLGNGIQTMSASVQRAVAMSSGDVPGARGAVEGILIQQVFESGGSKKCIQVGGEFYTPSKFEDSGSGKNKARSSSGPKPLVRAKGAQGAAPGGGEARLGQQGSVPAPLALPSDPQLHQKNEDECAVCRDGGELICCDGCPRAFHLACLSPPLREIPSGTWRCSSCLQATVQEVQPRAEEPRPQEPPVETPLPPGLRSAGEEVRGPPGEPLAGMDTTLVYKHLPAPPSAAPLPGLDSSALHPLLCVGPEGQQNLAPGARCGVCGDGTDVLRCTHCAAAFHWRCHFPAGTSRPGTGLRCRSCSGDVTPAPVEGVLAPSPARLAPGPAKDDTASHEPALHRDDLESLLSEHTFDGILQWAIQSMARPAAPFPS

Variants of: B1
ASSAY_DETAILS: AIRE transcriptional activation functional score (insulin promoter-GFP; nonsense median 0, synonymous median 1) (normalised score); higher = higher AIRE activity (more reporter activation)
EXPERIMENTAL_PARAMETERS: with insulin promoter-GFP reporter in HEK293
READOUT_KIND: AIRE transcriptional activation functional score
Lab note: jot the number down without any unit.

Known results for variants:
MUTANT_CODE | NUMERIC_READOUT
K294M | 0.969
T147W | 1.75
Q44W | 0.23
D76G | -0.331
Q173W | 1.54

Briefly, AIRE transcriptional activation functional score measured for Q262P : 1.16

Consider P126G . Its measured AIRE transcriptional activation functional score is 1.42

Attribution: the supplement of paper PMC12667976
